- targetOrTestSystem: T1, human VEGFA165 (human, UniProt P15692-4 27-191)
- T1 construct: Bought protein from two suppliers, treated as one molecule; the supplier is named under assay; also called antigen VEGFA
- T1 sequence (P15692 other isoform, or with tags, fused parts or gaps limits assumed): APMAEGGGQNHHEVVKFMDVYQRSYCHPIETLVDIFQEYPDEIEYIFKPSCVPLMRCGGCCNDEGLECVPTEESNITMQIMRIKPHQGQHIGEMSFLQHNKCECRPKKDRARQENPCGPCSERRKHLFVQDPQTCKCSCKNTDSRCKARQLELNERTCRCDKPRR
- assayComment: competitive ELISA, coated VEGFA, competitor VEGFR2-ECD-Fc 1 nM
recordedEndpoint: Maximum inhibition rate (%)
Numeric answer only, unit % assumed.

A selection of reference data follows.
| binder | Maximum inhibition rate (%) |
| --- | --- |
| 2V15-39GS (VHH, Tandem bivalent nanobody) QLQLVESGGGSVQPGGSLRLSCEVSGRTFASYTMGWFRQAPGKEREFVVAISKGGYKYDSVSLEARFTISKDNTKNTVYLQMNSLKPEDTAVYYCAGTRAYGSSRLRLAETYEYWGQGTQVTVSSGGGGSGGGSGGGGSGGGGSGGGGSGGGGSGGGGSGGGGSQLQLVESGGGSVQPGGSLRLSCEVSGRTFASYTMGWFRQAPGKEREFVVAISKGGYKYDSVSLEARFTISKDNTKNTVYLQMNSLKPEDTAVYYCAGTRAYGSSRLRLAETYEYWGQGTQVTVSS | 94.5 |
| 2V1-EAAAK-Turn (VHH, Tandem bivalent nanobody) QLQLVESGGGSVQPGGSLRLSCEVSGRTFSSYTMGWFRQAPGKEREFVVAISKGGYKYDSVSLEARFTISKDNTKNTVYLQMNSLKPEDTAVYYCAATRAYGSSRLRLADTYEYWGQGTQVTVSSPDSEAAAKEAAAKEAAAKEAAAKEAAAKPDGSSQLQLVESGGGSVQPGGSLRLSCEVSGRTFSSYTMGWFRQAPGKEREFVVAISKGGYKYDSVSLEARFTISKDNTKNTVYLQMNSLKPEDTAVYYCAATRAYGSSRLRLADTYEYWGQGTQVTVSS | 96.8 |

Turning now to a further binder:
Dear colleague, I am looking for the recorded Maximum inhibition rate (%) of the following binder: 2V15-20GS (VHH, Tandem bivalent nanobody) QLQLVESGGGSVQPGGSLRLSCEVSGRTFASYTMGWFRQAPGKEREFVVAISKGGYKYDSVSLEARFTISKDNTKNTVYLQMNSLKPEDTAVYYCAGTRAYGSSRLRLAETYEYWGQGTQVTVSSGGGGSGGGSGGGSGGGSGGSQLQLVESGGGSVQPGGSLRLSCEVSGRTFASYTMGWFRQAPGKEREFVVAISKGGYKYDSVSLEARFTISKDNTKNTVYLQMNSLKPEDTAVYYCAGTRAYGSSRLRLAETYEYWGQGTQVTVSS 94.2
